src = patent US10941150B2

test system: MDA-MB-436 cells; test: Anti-proliferation test (CCK8), singly and combined with TMZ; format: cell-based; settings: Homo sapiens, MDA-MB-436, 192 h, MDA-MB-436, used singly, 8 days, average; read-out: IC50_Avg
reportedMetric: pIC50
pIC50 here: minus log base 10 of the concentration, concentration in moles per litre.

Inquiry: Find the measured pIC50 of C[C@]1(c2nc3c(C(N)=O)cccc3[nH]2)CCCN1 and report it.
Reply text: 6.52

Inquiry: Indicate the recorded pIC50 value for this compound: Cn1nnc2c(C(N)=O)ncn2c1=O [TMZ, temozolomide]
Reply text: 3.95

Inquiry: Check the records and state pIC50 for CC(C)N1CCC(C)(c2cnn3c2[nH]c2cc(F)cc(C(N)=O)c23)CC1
Reply text: 7.15
